MEASURED ON: GABA-A receptor; alpha-2/beta-3/gamma-2 (Homo sapiens, UniProt P18507+P28472+P47869)
ASSAY REMARKS: Binding affinity tested against alpha-2-beta-3-gamma-2 GABAA/BzR receptor subtype.
Assay type: protein-complex assay
Form field: Ki (one value per entry).

{"LINE NOTATION": "CN1Cc2c(C(=O)OCC3CC3)ncn2-c2ccc(Cl)cc2C1=O", "Ki, nM": 48.2}
{"LINE NOTATION": "C=Cc1ccc2c(c1)C(=O)N(C)Cc1c(C(=O)OCC)ncn1-2", "Ki, nM": 10.2}
{"LINE NOTATION": "C#Cc1ccc2c(c1)C(=O)N1CCC[C@H]1c1c(-c3nc(C)no3)ncn1-2", "Ki, nM": 70}

====

MEASURED ON: GABA-A receptor; alpha-2/beta-3/gamma-2 (Homo sapiens, UniProt P18507+P28472+P47869)
Sequence (P18507 whole entry): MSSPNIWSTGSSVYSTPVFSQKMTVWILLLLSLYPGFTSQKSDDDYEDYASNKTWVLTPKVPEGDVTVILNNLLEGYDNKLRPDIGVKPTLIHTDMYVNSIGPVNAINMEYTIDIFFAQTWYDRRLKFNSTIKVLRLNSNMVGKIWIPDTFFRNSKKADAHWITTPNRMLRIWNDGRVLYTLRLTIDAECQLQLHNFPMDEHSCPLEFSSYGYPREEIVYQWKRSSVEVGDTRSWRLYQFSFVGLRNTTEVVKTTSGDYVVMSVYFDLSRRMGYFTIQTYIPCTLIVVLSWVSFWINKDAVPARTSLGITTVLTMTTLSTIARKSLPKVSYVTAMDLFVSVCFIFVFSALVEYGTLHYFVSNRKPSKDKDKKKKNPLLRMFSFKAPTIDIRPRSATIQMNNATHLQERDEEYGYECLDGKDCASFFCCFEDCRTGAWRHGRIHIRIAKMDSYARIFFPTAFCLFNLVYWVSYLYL
Sequence (P28472 whole entry): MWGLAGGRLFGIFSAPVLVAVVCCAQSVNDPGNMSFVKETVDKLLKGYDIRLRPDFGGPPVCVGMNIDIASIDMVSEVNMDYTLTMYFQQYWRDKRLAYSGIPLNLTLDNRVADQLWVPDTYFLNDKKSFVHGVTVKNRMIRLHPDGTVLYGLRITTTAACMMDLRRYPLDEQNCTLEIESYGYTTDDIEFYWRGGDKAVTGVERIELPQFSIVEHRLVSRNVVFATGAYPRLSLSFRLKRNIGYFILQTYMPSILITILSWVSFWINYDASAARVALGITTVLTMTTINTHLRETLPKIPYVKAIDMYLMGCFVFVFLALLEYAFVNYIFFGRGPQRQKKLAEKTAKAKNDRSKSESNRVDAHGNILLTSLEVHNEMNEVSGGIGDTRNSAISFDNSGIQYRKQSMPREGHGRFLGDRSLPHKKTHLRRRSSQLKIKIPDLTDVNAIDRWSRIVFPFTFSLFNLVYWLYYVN
Sequence (P47869 whole entry): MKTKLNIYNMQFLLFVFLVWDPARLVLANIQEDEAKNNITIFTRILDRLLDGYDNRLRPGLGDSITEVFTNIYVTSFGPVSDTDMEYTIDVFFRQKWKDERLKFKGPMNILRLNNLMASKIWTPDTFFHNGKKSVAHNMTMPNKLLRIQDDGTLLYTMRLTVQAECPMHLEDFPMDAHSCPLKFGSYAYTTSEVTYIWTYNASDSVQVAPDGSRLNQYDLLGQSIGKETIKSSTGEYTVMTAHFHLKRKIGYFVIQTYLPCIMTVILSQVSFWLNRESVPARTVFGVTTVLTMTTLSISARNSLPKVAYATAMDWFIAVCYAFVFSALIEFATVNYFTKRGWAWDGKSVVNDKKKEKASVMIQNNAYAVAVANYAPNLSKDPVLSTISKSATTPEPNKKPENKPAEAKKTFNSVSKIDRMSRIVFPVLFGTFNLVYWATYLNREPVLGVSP
ASSAY REMARKS: Binding affinity tested against alpha-2-beta-3-gamma-2 GABAA/BzR receptor subtype.
Type: protein-complex assay
Mark rule met for Ki under 100 nM, rule not met if at or over.

{"LINE NOTATION": "CCc1ncn2c1CN(C)C(=O)c1cc(Cl)ccc1-2", "CLASS": "rule not met"}
{"LINE NOTATION": "CCOC(=O)c1ncn2c1[C@@H]1CCN1C(=O)c1cc(C#C[Si](C)(C)C)ccc1-2", "CLASS": "rule met"}
{"LINE NOTATION": "CCOCc1ncn2c1CN(C)C(=O)c1cc(Cl)ccc1-2", "CLASS": "rule not met"}
{"LINE NOTATION": "C#Cc1ccc2c(c1)C(=O)N1CC[C@H]1c1c(C(=O)OCC)ncn1-2", "CLASS": "rule met"}
{"LINE NOTATION": "CCN(CC)Cc1ncn2c1CN(C)C(=O)c1cc(Cl)ccc1-2", "CLASS": "rule not met"}
{"LINE NOTATION": "CCOC(=O)c1ncn2c1CN(C)C(=O)c1cc(C#CC[Si](C)(C)C)ccc1-2", "CLASS": "rule not met"}
{"LINE NOTATION": "CN1Cc2c(C(=O)OC(C)(C)C)ncn2-c2ccc(C#CC[Si](C)(C)C)cc2C1=O", "CLASS": "rule not met"}
{"LINE NOTATION": "CCOC(=O)c1ncn2c1CN(C)C(=O)c1cc(CC)ccc1-2", "CLASS": "rule met"}
{"LINE NOTATION": "CCOC(=O)c1ncn2c1[C@@H]1CCCN1C(=O)c1cc(C#C[Si](C)(C)C)ccc1-2", "CLASS": "rule not met"}
{"LINE NOTATION": "CC(C)N(Cc1ncn2c1CN(C)C(=O)c1cc(Cl)ccc1-2)C(C)C", "CLASS": "rule not met"}

====

Form field: pKi (one value per entry).
MEASURED ON: GABA-A receptor; alpha-2/beta-3/gamma-2 (Homo sapiens, UniProt P18507+P28472+P47869)
ASSAY REMARKS: Binding affinity tested against alpha-2-beta-3-gamma-2 GABAA/BzR receptor subtype.
Format: protein-complex assay
pKi: −log10 of the molar value.
READOUT: pKi

{"LINE NOTATION": "C#Cc1ccc2c(c1)C(=O)N(C)Cc1c(C(=O)OCC)ncn1-2", "VALUE RELATION SIGN": "=", "MEASURED NUMBER": 7.67}
{"LINE NOTATION": "CCOC(=O)c1ncn2c1[C@@H]1CCCN1C(=O)c1cc(Br)ccc1-2", "VALUE RELATION SIGN": "=", "MEASURED NUMBER": 7.54}
{"LINE NOTATION": "CN1Cc2c(C(=O)OC(C)(C)C)ncn2-c2ccc(Cl)cc2C1=O", "VALUE RELATION SIGN": "=", "MEASURED NUMBER": 7.67}
{"LINE NOTATION": "CN1Cc2c(C(=O)OC(C)(C)C)ncn2-c2ccc(I)cc2C1=O", "VALUE RELATION SIGN": "=", "MEASURED NUMBER": 7.95}
{"LINE NOTATION": "COCc1ncn2c1CN(C)C(=O)c1cc(Cl)ccc1-2", "VALUE RELATION SIGN": "<", "MEASURED NUMBER": 6.52}
{"LINE NOTATION": "CCOC(=O)c1ncn2c1[C@H]1CCCN1C(=O)c1cc(C#C[Si](C)(C)C)ccc1-2", "VALUE RELATION SIGN": "<", "MEASURED NUMBER": 6.00}
{"LINE NOTATION": "C#Cc1ccc2c(c1)C(=O)N1CC[C@H]1c1c(-c3nc(CC)no3)ncn1-2", "VALUE RELATION SIGN": "=", "MEASURED NUMBER": 6.82}
{"LINE NOTATION": "C#Cc1ccc2c(c1)C(=O)N1CCC[C@@H]1c1c(C(=O)OCC)ncn1-2", "VALUE RELATION SIGN": "=", "MEASURED NUMBER": 6.50}
{"LINE NOTATION": "CCCCCc1ncn2c1CN(C)C(=O)c1cc(Cl)ccc1-2", "VALUE RELATION SIGN": "=", "MEASURED NUMBER": 5.54}
{"LINE NOTATION": "C#Cc1ccc2c(c1)C(=O)N(C)Cc1c(C(=O)OC(C)(C)C)ncn1-2", "VALUE RELATION SIGN": "=", "MEASURED NUMBER": 7.58}
{"LINE NOTATION": "CN1Cc2c(C(=O)OC(C)(C)C)ncn2-c2ccc(N=C=S)cc2C1=O", "VALUE RELATION SIGN": "=", "MEASURED NUMBER": 7.47}
{"LINE NOTATION": "CN1Cc2c(CCl)ncn2-c2ccc(Cl)cc2C1=O", "VALUE RELATION SIGN": "<", "MEASURED NUMBER": 6.52}
{"LINE NOTATION": "CN1Cc2c(C(=O)OC(C)(C)C)ncn2-c2ccc(Br)cc2C1=O", "VALUE RELATION SIGN": "=", "MEASURED NUMBER": 7.97}
{"LINE NOTATION": "CN1Cc2c(C(=O)OC(C)(C)C)ncn2-c2ccc(C#C[Si](C)(C)C)cc2C1=O", "VALUE RELATION SIGN": "=", "MEASURED NUMBER": 6.84}
{"LINE NOTATION": "CC#Cc1ccc2c(c1)C(=O)N(C)Cc1c(C(=O)OCC)ncn1-2", "VALUE RELATION SIGN": "=", "MEASURED NUMBER": 7.65}
{"LINE NOTATION": "CC(=O)c1ncn2c1CN(C)C(=O)c1cc(Cl)ccc1-2", "VALUE RELATION SIGN": "=", "MEASURED NUMBER": 4.47}
{"LINE NOTATION": "CCOC(=O)c1ncn2c1[C@@H]1CCN1C(=O)c1cc(Br)ccc1-2", "VALUE RELATION SIGN": "=", "MEASURED NUMBER": 7.89}
{"LINE NOTATION": "CN1Cc2c(CO)ncn2-c2ccc(Cl)cc2C1=O", "VALUE RELATION SIGN": "<", "MEASURED NUMBER": 6.52}
{"LINE NOTATION": "C#Cc1ccc2c(c1)C(=O)N1CCC[C@@H]1c1c(-c3nc(C)no3)ncn1-2", "VALUE RELATION SIGN": "<", "MEASURED NUMBER": 6.00}
{"LINE NOTATION": "C#Cc1ccc2c(c1)C(=O)N1CC[C@H]1c1c(-c3nc(C(C)C)no3)ncn1-2", "VALUE RELATION SIGN": "=", "MEASURED NUMBER": 7.06}
{"LINE NOTATION": "CCOC(=O)c1ncn2c1[C@@H]1CCCN1C(=O)c1cc(OC)ccc1-2", "VALUE RELATION SIGN": "=", "MEASURED NUMBER": 7.56}
{"LINE NOTATION": "CCOC(=O)c1ncn2c1CN(C)C(=O)c1cc(OCC)ccc1-2", "VALUE RELATION SIGN": "=", "MEASURED NUMBER": 7.44}
